EXPERIMENTAL PROTOCOL: Mouse PK test of peptides (intravenous and oral administration)
MEASUREMENT SETUP: male, C57BL/6J, in vivo, po, 20 mg/kg
Positions of bridges follow the written chain, without caps; N, C: chain ends. Non-standard residues stand in square brackets, D forms with d. Residues, ends and D or L forms follow the SMILES beside them. *: point of attachment. NMeF = CN[C@@H](Cc1ccccc1)C(=O)O; NMeI = CC[C@H](C)[C@H](NC)C(=O)O; Piperidide = C1CCN(*)CC1
ATTRIBUTE MEASURED: Tmax
Give the value; after it, write the unit.

Ask: # get_value(readout='Tmax', item= CC[C@H](C)[C@H](NC(=O)[C@@H]1CCCN1C(=O)[C@@H]1CC(=O)N[C@@H](C)C(=O)N[C@@H](CC(C)C)C(=O)N(C)[C@@H]([C@@H](C)CC)C(=O)N[C@@H](C(C)C)C(=O)N(C)[C@@H](Cc2ccccc2)C(=O)N[C@@H](CC(C)C)C(=O)N(C)[C@@H](Cc2ccccc2)C(=O)N1)C(=O)N1CCCCC1 [DP-965] (AL[NMeI]V[NMeF]L[NMeF]DPI-Piperidide; lactam N-8) )
Reply: 2.67 h

====

EXPERIMENTAL PROTOCOL: PAMPA (parallel artificial membrane permeability assay)
Format: in vitro ADME
MEASUREMENT SETUP: PAMPA; membrane permeation rate (Pe); 50 mM MOPSO buffer pH 6.5 with 5.0% glycocholic acid, 37° C., 18 hours; read-out: iPAMPA Pe
Positions of bridges follow the written chain, without caps; N, C: chain ends. Non-standard residues stand in square brackets, D forms with d. Residues, ends and D or L forms follow the SMILES beside them. *: point of attachment. NMeF = CN[C@@H](Cc1ccccc1)C(=O)O; NMeL = CN[C@@H](CC(C)C)C(=O)O; NMeV = CN[C@H](C(=O)O)C(C)C; NMeA = CN[C@@H](C)C(=O)O; Piperidide = C1CCN(*)CC1; Sar = CNCC(=O)O; tBu = CC(C)(C)*
ATTRIBUTE MEASURED: Papp at 18 hours, 50 µM (×10⁻⁶ cm/s)
Unit ×10⁻⁶ cm/s implied. Number only.

Ask: What value of measured Papp at 18 hours, 50 µM is listed for CC(C)C[C@H]1C(=O)N(C)[C@@H](CC(C)C)C(=O)N(C)CC(=O)N(C)[C@@H](Cc2ccccc2)C(=O)N[C@@H](C)C(=O)N(C)[C@@H](Cc2ccccc2)C(=O)N(C)[C@@H](CC(C)C)C(=O)N[C@@H]([C@@H](C)O)C(=O)N[C@H](C(=O)N2CCCCC2)CC(=O)N[C@H](C(C)C)C(=O)N(C)[C@@H](C)C(=O)N1C [DP-151] ([dV][NMeA][NMeL][NMeL][Sar][NMeF]A[NMeF][NMeL]TD-Piperidide; lactam N-11) ?
Reply: 27

Ask: Fill blank: measured Papp at 18 hours, 50 µM of the compound CC(C)C[C@H]1C(=O)N[C@@H](Cc2ccccc2)C(=O)N(C)[C@@H](C(C)C)C(=O)N[C@@H]([C@@H](C)O)C(=O)N[C@H](C(=O)N(C)[C@@H](Cc2ccccc2)C(=O)N(C)[C@@H](Cc2ccccc2)C(=O)N[C@@H](C)C(=O)N2CCCCC2)CC(=O)N(C)[C@@H](C)C(=O)N(C)[C@@H](C)C(=O)N[C@@H](C(C)C)C(=O)N(C)[C@@H](Cc2ccccc2)C(=O)NCC(=O)N1C [DP-456] ([NMeA][NMeA]V[NMeF]G[NMeL]F[NMeV]TD[NMeF][NMeF]A-Piperidide; lactam N-10) is ____.
Reply: 41

Ask: Would you mind telling me what Papp at 18 hours, 50 µM value was observed for CC(C)C[C@H]1C(=O)N[C@@H](COC(C)(C)C)C(=O)N[C@H](C(=O)N2CCCCC2)CC(=O)N(C)[C@@H](C)C(=O)N(C)[C@@H](Cc2ccccc2)C(=O)N(C)[C@@H](CC(C)C)C(=O)N[C@@H]([C@@H](C)O)C(=O)N(C)CC(=O)N1C [DP-523] ([NMeA][NMeF][NMeL]T[Sar][NMeL]S(tBu)D-Piperidide; lactam N-8) ?
Reply: 20

====

Would you kindly list microsomal CLint at 1 uM for each of these compounds?
EXPERIMENTAL PROTOCOL: Metabolic stability in human hepatic microsome
Type: in vitro ADME
MEASUREMENT SETUP: microsomes, pH 7.4; human hepatic microsome, NADPH(+); read-out: CL NADPH(+)
Starred links: 1 amine or outer side, 2 acyl side, 3 side chain; linkers in the order of their positions; H or OH if unused. Positions of bridges follow the written chain, without caps; N, C: chain ends. Non-standard residues stand in square brackets, D forms with d. Residues, ends and D or L forms follow the SMILES beside them. *: point of attachment. NMeF = CN[C@@H](Cc1ccccc1)C(=O)O; NMeGABA = CN(CCCC(=O)[*:2])[*:1]; NMeI = CC[C@H](C)[C@H](NC)C(=O)O; NMeβAla = CN(CCC(=O)[*:2])[*:1]; NMeL = CN[C@@H](CC(C)C)C(=O)O; NMeV = CN[C@H](C(=O)O)C(C)C; NMeA = CN[C@@H](C)C(=O)O; Piperidide = C1CCN(*)CC1; dNMeA = CN[C@H](C)C(=O)O; Sar = CNCC(=O)O; tBu = CC(C)(C)*
Just the number please, in µL/min/mg, no unit attached.

Ask: Look up microsomal CLint at 1 uM for this compound: CC(C)C[C@H]1C(=O)N[C@@H]([C@@H](C)O)C(=O)N(C)[C@@H](Cc2ccccc2)C(=O)N(C)[C@@H](CC(C)C)C(=O)NCC(=O)N(C)[C@@H](C(C)C)C(=O)N[C@@H](Cc2ccccc2)C(=O)N[C@H](C(=O)N(C)[C@@H](Cc2ccccc2)C(=O)N(C)[C@@H](Cc2ccccc2)C(=O)N[C@@H](C)C(=O)N2CCCCC2)CC(=O)N(C)[C@H](C)C(=O)N[C@@H](C(C)C)C(=O)N1C [DP-503] ([dNMeA]V[NMeL]T[NMeF][NMeL]G[NMeV]FD[NMeF][NMeF]A-Piperidide; lactam N-10)
Reply: 43

Ask: Report microsomal CLint at 1 uM for CC(C)C[C@H]1C(=O)N(C)[C@@H](C)C(=O)N(C)[C@@H](CC(C)C)C(=O)N[C@H](C(=O)N(C)[C@@H](Cc2ccccc2)C(=O)N(C)[C@@H](Cc2ccccc2)C(=O)N[C@@H](C)C(=O)N2CCCCC2)CC(=O)N(C)CCCC(=O)N[C@@H]([C@@H](C)O)C(=O)N(C)[C@@H](Cc2ccccc2)C(=O)N(C)[C@@H](CC(C)C)C(=O)N[C@@H](C(C)C)C(=O)N1C [DP-403] ([NMeGABA]T[NMeF][NMeL]V[NMeL][NMeA][NMeL]D[NMeF][NMeF]A-Piperidide; lactam N-9) please.
Reply: 57

Ask: Quick check: microsomal CLint at 1 uM of CC[C@H](C)[C@H]1C(=O)N(C)[C@@H](Cc2ccccc2)C(=O)N[C@@H]([C@@H](C)O)C(=O)N(C)[C@@H](C)C(=O)N(C)[C@@H](C(C)C)C(=O)N(C)[C@@H](CC(C)C)C(=O)N[C@@H](C)C(=O)N[C@H](C(=O)N2CCCCC2)CC(=O)N(C)CCC(=O)N[C@@H](Cc2ccccc2)C(=O)N(C)[C@@H](CC(C)C)C(=O)N1C [DP-241] ([NMeβAla]F[NMeL][NMeI][NMeF]T[NMeA][NMeV][NMeL]AD-Piperidide; lactam N-11) ?
Reply: 30

Ask: What value of microsomal CLint at 1 uM has been reported for the following compound? CC(C)C[C@H]1C(=O)N[C@@H](COC(C)(C)C)C(=O)N(C)[C@@H](Cc2ccccc2)C(=O)N(C)[C@@H](C)C(=O)N[C@@H](Cc2ccccc2)C(=O)N(C)[C@@H](C(C)C)C(=O)N[C@H](C(=O)N2CCCCC2)CC(=O)N(C)[C@H](C)C(=O)N[C@@H]([C@@H](C)O)C(=O)NCC(=O)N1C [DP-340] ([dNMeA]TG[NMeL]S(tBu)[NMeF][NMeA]F[NMeV]D-Piperidide; lactam N-10)
Reply: 86

Ask: // query microsomal CLint at 1 uM value for entry CC[C@H](C)[C@@H]1NC(=O)[C@H](C(C)C)N(C)C(=O)[C@H](CC(C)C)N(C)C(=O)[C@H](Cc2ccccc2)NC(=O)[C@@H](C)N(C)C(=O)C[C@@H](C(=O)N(C)[C@@H](Cc2ccccc2)C(=O)N(C)[C@@H](Cc2ccccc2)C(=O)N[C@@H](C)C(=O)N2CCCCC2)NC(=O)[C@H](C)N(C)C(=O)[C@H]([C@@H](C)O)NC(=O)[C@H](CC(C)C)N(C)C(=O)CN(C)C1=O [DP-454] ([dNMeA]F[NMeL][NMeV]I[Sar][NMeL]T[NMeA]D[NMeF][NMeF]A-Piperidide; lactam N-10)
Reply: 50
